Origin of values: patent US8158803B2

tested on: genotype 1b HCV replicon in Huh7 cell line 2209-23; assay: HCV replicon assay (Renilla luciferase reporter); format: cell-based; details: Hepatitis C virus, Huh-7, 72 h; 2209-23 cells, three days incubation
PROPERTY NAME: IC50
Respond with the figure and its unit, in that order.

What value of IC50 has been reported for the following molecule? COc1c(C2CC2c2ccc(NS(C)(=O)=O)cc2)cc(-c2ccc[nH]c2=O)cc1C(C)(C)C (stereo not shown) 109 nM
